Values were extracted from ChEMBL document CHEMBL1212936.

- assay details: Physiological stability of the compound in simulated intestinal bile salts-lecithin mixture fluid assessed as compound remaining after 16 hrs in presence of 20% acetonitrile
- Format: physicochemical
- run conditions: read-out: Stability

{"columns": ["mol", "remaining at 16 h"],
 "data": [
  ["O=C(O)c1c(O)c(C2(c3ccc(Cl)cc3)CC2)nc2c(C(F)(F)F)cccc12", "102%"]
]}

* * *

- assay details: Physiological stability of the compound in simulated intestinal bile salts-lecithin mixture fluid assessed as compound remaining after 8 hrs in presence of 20% acetonitrile
- Type: physicochemical
- run conditions: read-out: Stability

{"columns": ["mol", "units of measure", "remaining at 8 h"],
 "data": [
  ["O=C(O)c1c(O)c(C2(c3ccc(Cl)cc3)CC2)nc2c(C(F)(F)F)cccc12", "%", 101]
]}

* * *

- assay details: Physiological stability of the compound at pH 1 assessed as compound remaining after 16 hrs in presence of 20% acetonitrile
- Type: physicochemical
- run conditions: read-out: Stability

{"columns": ["mol", "remaining at 16 h [%]"],
 "data": [
  ["O=C(O)c1c(O)c(C2(c3ccc(Cl)cc3)CC2)nc2c(C(F)(F)F)cccc12", 102]
]}

* * *

- assay details: Aqueous solubility of the compound at pH 6.6
- Type: physicochemical
- run conditions: aqueous solution

{"columns": ["compound", "solubility"],
 "data": [
  ["CC(C)C(c1ccccc1)c1nc2c(C(F)(F)F)cccc2c(C(=O)O)c1O (stereo not given)", "30 µg/mL"],
  ["O=C(O)c1c(O)c(C2(c3ccc(Cl)cc3)CC2)nc2c(C(F)(F)F)cccc12", "920 µg/mL"],
  ["O=C(O)c1c(O)c(C2(c3ccccc3)CC2)nc2c(C(F)(F)F)cccc12", "2100 µg/mL"],
  ["O=C(O)c1c(O)c(Cc2ccc(Cl)cc2)nc2c3c(ccc12)CCCC3 [PSI-697]", "< 10 µg/mL"],
  ["CC(c1ccccc1)c1nc2c(C(F)(F)F)cccc2c(C(=O)O)c1O (stereo not given)", "1550 µg/mL"]
]}

* * *

- assay details: Permeability from basolateral to apical side in human Caco-2 cells
- Assay type: ADME, cell-based

{"columns": ["mol", "Papp B→A, ×10⁻⁶ cm/s"],
 "data": [
  ["O=C(O)c1c(O)c(C2(c3ccc(Cl)cc3)CC2)nc2c(C(F)(F)F)cccc12", 9.8]
]}

* * *

- assay details: Physiological stability of the compound at pH 6.6 assessed as compound remaining after 12 hrs in presence of 20% acetonitrile
- Type: physicochemical
- run conditions: read-out: Stability
experimental readout: remaining at 12 h (%)

{"columns": ["mol", "units of measure", "endpoint value"],
 "data": [
  ["O=C(O)c1c(O)c(C2(c3ccc(Cl)cc3)CC2)nc2c(C(F)(F)F)cccc12", "%", 106]
]}

* * *

- System: Rattus norvegicus
- assay details: Dose normalized AUC in Sprague-Dawley rat measured per mg of plasma at 3 mg/kg, iv and 10 mg/kg, po
- Format: ADME, organism-based
- run conditions: in vivo
# AUC per record follows
experimental readout: AUC (ng·h/mL)

{"columns": ["compound", "units of measure", "endpoint value"],
 "data": [
  ["O=C(O)c1c(O)c(C2(c3ccccc3Cl)CC2)nc2c(C(F)(F)F)cccc12", "ng·h/mL", 1336],
  ["O=C(O)c1c(O)c(C2(c3ccc(C(F)(F)F)cc3)CC2)nc2c(C(F)(F)F)cccc12", "ng·h/mL", 13800],
  ["CC(C)c1cccc2c(C(=O)O)c(O)c(C3(c4ccc(F)cc4)CC3)nc12", "ng·h/mL", 1263],
  ["Cc1ccc2c(C(=O)O)c(O)c(C3(c4ccc(Cl)cc4)CC3)nc2c1C", "ng·h/mL", 1735],
  ["O=C(O)c1c(O)c(Cc2ccc(Cl)cc2)nc2c3c(ccc12)CCCC3 [PSI-697]", "ng·h/mL", 440],
  ["CC(c1ccccc1)c1nc2c3c(ccc2c(C(=O)O)c1O)CCCC3 (stereo not given)", "ng·h/mL", 1259],
  ["CCc1cccc2c(C(=O)O)c(O)c(C3(c4ccc(Cl)cc4)CC3)nc12", "ng·h/mL", 13986],
  ["CC(C)c1cccc2c(C(=O)O)c(O)c(C3(c4ccccc4)CC3)nc12", "ng·h/mL", 2663],
  ["O=C(O)c1c(O)c(C2(c3ccc(F)cc3)CC2)nc2c(C(F)(F)F)cccc12", "ng·h/mL", 14282],
  ["O=C(O)c1c(O)c(C2(c3ccc(Cl)cc3)CC2)nc2c(C(F)(F)F)cccc12", "ng·h/mL", 21000]
]}
